Test system: 843782-103-R-J1-PDC complex spheroid viability;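 note: viability read after seven days of compound exposure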
procedure text: Anticancer human tumor 843782-103-R-J1-PDC patient-derived lung adenocarcinoma cell line growth inhibition [RAS]
cond: second compound 0.0316 µM; first compound 0.00316 µM; hits give low values
quantity: viability, T/C (%)
The answer is to be given in %; state only the numeric part.

Worked cases, viability, T/C given:
[in] Identify viability, T/C associated with the molecule CC(C)n1nc(-c2ccc3oc(N)nc3c2)c2c(N)ncnc21 + C=CC(=O)N1CCN(c2nc(OCC3CCCN3C)nc3c(F)c(-c4nc(N)cc(C)c4C(F)(F)F)c(Cl)cc23)C(C)C1
[out] 66.6

[in] Using the record for C=CC(=O)Nc1cc(Nc2nccc(-c3cn(C)c4ccccc34)n2)c(OC)cc1N(C)CCN(C)C + C=CC(=O)N1CCN(c2nc(OCC3CCCN3C)nc3c(F)c(-c4nc(N)cc(C)c4C(F)(F)F)c(Cl)cc23)C(C)C1 , state its measured viability, T/C.
[out] 91.1

Next molecule, please.
[in] Consider the molecule CCN1CCN(Cc2ccc(Nc3ncc(F)c(-c4cc(F)c5nc(C)n(C(C)C)c5c4)n3)nc2)CC1 + C#Cc1c(F)ccc2cc(O)cc(-c3ncc4c(N5CC6CCC(C5)N6)nc(OCC56CCCN5CC(F)C6)nc4c3F)c12 . State its measured viability, T/C.
[out] 108
